# testedOn: T1, mouse 4-1BB extracellular domain, His tag (mouse, UniProt P20334 24-187)
# T1 construct: extracellular domain; also called mPro1.ECD.His; not shown: His tag
# T1 sequence (looked up): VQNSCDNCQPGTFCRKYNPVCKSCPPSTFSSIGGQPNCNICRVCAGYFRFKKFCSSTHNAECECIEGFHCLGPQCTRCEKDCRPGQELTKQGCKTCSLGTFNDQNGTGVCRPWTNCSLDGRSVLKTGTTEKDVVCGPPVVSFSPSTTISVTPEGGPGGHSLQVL
# assayDetails: SPR, Biacore T200; antibody captured on Protein G chip, mouse 4-1BB ECD.His as analyte
assayMetric: Kd (nM)
Numbers only; they are read as nM.

binder	valueObserved
2.19.8-u1-3-hIgG4L (antibody, V domains shown) VH: QVQLVESGGGLVKPGGSLRLSCAASGFTFSDYFMSWIRQAPGKGLEWVSYISNAGSSKYYADSVKGRFTISRDNAKNSLYLQMNSLRAEDTAVYYCVRDPYSGSYSGWFDPWGQGTLVTVSS VL: SYDLTQPPSVSVSPGQTASITCSGDDLGDKYTSWYQQKPGQSPVLVVYQDHKRPSGIPERFSGSNSGNTATLTISGTQAMDEADYYCQAWDKGIVVFGGGTKLTVL	18.4

Look at this binder and give its reported Kd. 2.19.8-u1-3-hIgG1L (antibody, V domains shown, Fully human antibody) VH: QVQLVESGGGLVKPGGSLRLSCAASGFTFSDYFMSWIRQAPGKGLEWVSYISNAGSSKYYADSVKGRFTISRDNAKNSLYLQMNSLRAEDTAVYYCVRDPYSGSYSGWFDPWGQGTLVTVSS VL: SYDLTQPPSVSVSPGQTASITCSGDDLGDKYTSWYQQKPGQSPVLVVYQDHKRPSGIPERFSGSNSGNTATLTISGTQAMDEADYYCQAWDKGIVVFGGGTKLTVL
26.1

Same question, 2.27.16-u1-1-hIgG4L (antibody, V domains shown) VH: QEQLQESGPGLVKPSQTLSLTCTVSGGSINSQGYYWSWIRQHPGKGLEWIGYIYDSGSAYYNPSLERRVAISLDTSKNQFSLNLNSVTVADTAVYYCARIVAAGRIDPWGQGTLVTVSS VL: SYVLTQPPSVSVAPGQTARMTCGGDNIGIKIVHWYQQKAGQAPVLVVYDDNDRPSGIPDRFSGSNSGNTATLTISRVAAGDEADYYCQVWDRRSDHVVFGGGTKLTVL this time
6.27
